Test system: HCT-116 colon
Assay: NCI-60 one-dose screen, 48 h (100 = growth as untreated, 0 = no growth, -100 = all killed)
Details: 10 µM unless noted
This is part of a sample that, as a whole, favours compounds with a hit. Of some 83,000 tested, about 20% had one in any assay.
Checkbox rule: growth lower than 80% = class 1; growth not lower than 80% = class 0.

Worked examples, 5 compounds total:
smiles-text: COc1cc2ncnc(Nc3ccc(S(=O)(=O)Nc4cc(C)on4)cc3)c2cc1OCCCN1CCN(c2ccc([N+](=O)[O-])cc2)CC1
classification: class 0

smiles-text: O/N=C/c1ccncc1
classification: class 0

smiles-text: CCN(CC)CCCCCCCCNc1c2ccc(Cl)cc2nc2ccc(OC)cc12
classification: class 1

smiles-text: O=C(CC(=O)c1ccccc1F)Nc1ccc([N+](=O)[O-])cc1
classification: class 0

smiles-text: COc1ccc2nc3ccccc3c(NCc3ccc(Cl)cc3)c2c1
classification: class 1

Would you kindly verify if growth of CCN(CC)C(=O)O/N=C(/C)c1ccccc1 is strictly less than 80%? class 0

Dear reviewer, please state whether COc1ccc(/C(C)=N/NC(=O)CSc2nc3ccccc3c(=O)n2CCc2ccc(S(N)(=O)=O)cc2)cc1 has growth strictly beneath 80%. class 1

Record COc1ccc(-c2nc3ccccc3n3cccc23)cc1 : is its growth strictly below 80%? class 0

Does the reported growth of the following compound sit strictly below 80%? O=C(/C=C/c1ccccc1)c1c[nH]c2ccccc2c1=O class 1

Criterion: growth strictly below 80%. Is it met by O=C(N/N=C/c1ccc([N+](=O)[O-])cc1)c1ccccc1Nc1ccnc(C(F)(F)F)c1 ? class 1

* * *

Task for the reader: assign each of the following molecules its reported growth.
System: NCI-H226 lung
Experiment: NCI-60 one-dose screen, 48 h (100 = growth as untreated, 0 = no growth, -100 = all killed)
Details: 10 µM unless noted
Compounds without any hit were thinned out: in the full panel of roughly 83,000, 20% have a hit.
Give bare numbers, in %.

Illustrative cases are given below, each with its answer.
molecule: Cc1nc(N)nc2c1CCC(Nc1ccccc1)S2 (stereo not given)
value-observed: 99.1
--
molecule: O=C1C=CN2C(=O)CC=CC2[C@@H]1O (stereo not given in full)
value-observed: 113
--
molecule: CC(=O)c1ccc(Br)c([N+](=O)[O-])c1
value-observed: 112
--
molecule: CCOC(=O)C1=C(C(=O)OCC)N(c2cc(OC)c(OC)c(OC)c2)C(N)=C(C#N)C1c1cc(=O)[nH]c2ccccc12 (stereo not given)
value-observed: 96.7

Field: next molecule
Using the record for COc1ccc(Oc2nc(Nc3ccc(N4CCOCC4)cc3)ncc2NC(=O)Nc2cccc(OC)c2)cc1 , report its growth. 42.1

* * *

System: HCT-116 colon
Assay: NCI-60 one-dose screen, 48 h (100 = growth as untreated, 0 = no growth, -100 = all killed)
Conditions: 10 µM unless noted
About 83,000 compounds went through this panel and 20% of them were active in at least one assay; those are over-represented in the sample as a whole.
Consider the following molecules; for each one, report its growth.
One number for each entry, in %.

molecule: C=CCN(CC#N)CC=C
test-system: HCT-116 colon
reported-property: growth
value-observed: 98.1
//
molecule: COc1cc(C2CC(=O)Nc3c2cnn3C)cc(OC)c1OC (stereo unspecified)
test-system: HCT-116 colon
reported-property: growth
value-observed: 100
//
molecule: CCn1c(Cc2ccccc2Nc2c(Cl)cccc2Cl)nnc1SCC(=O)Nc1ccccc1C(F)(F)F
test-system: HCT-116 colon
reported-property: growth
value-observed: 77.8
//
molecule: CCN(CC)CCNC(=O)n1cc(-c2ccncc2)c(-c2ccc(Cl)c(OC)c2)n1
test-system: HCT-116 colon
reported-property: growth
value-observed: 84
//
molecule: COc1cc(Nc2ncccc2/C=C/C(=O)c2cc(OC)c(OC)c(OC)c2)cc(OC)c1OC
test-system: HCT-116 colon
reported-property: growth
value-observed: 60.6

Working through the 6 molecules below one at a time, give growth for each.
1. COc1ccc(N=C2CSc3nnc(-c4cc(F)c(Cl)cc4Cl)n3N2)cc1
2. CC(C)c1ccc2c(c1)CCC1C2CCCC1(C)NCc1ccccc1 (stereo unspecified)
3. O=C(NCCN1CCCCC1)n1cc(-c2ccncc2)c(-c2ccc(Cl)c(O)c2)n1
4. COc1ccc(/C=C/C(=O)CCC(=O)O)cc1OC
5. COc1cc(/C=C2\CN(C(=O)OC(C)(C)C)C/C(=C\c3ccc(O)c(OC)c3)C2=O)ccc1O
6. COc1ccc(/C=C/c2nc(NCCCN(C)C)c3ccccc3n2)cc1

1. -61.4
2. 60.3
3. 44.6
4. 104
5. 68.6
6. 38

* * *

System: SK-MEL-5 melanoma
Assay: NCI-60 one-dose screen, 48 h
Conditions: 10 µM unless noted
The panel holds about 83,000 compounds, 20% with a hit somewhere; the sample as a whole holds those more often. Activity calls are given as the source filed them. The calls were made as follows: active = growth percent below 10; inactive = the rest.
Hi there, use one of these labels in your reply, thanks! active, inactive

These solved cases illustrate the format of a correct answer.
molecule: CC1(C)OC2OC3C(CN)OC(c4ccccc4)OC3C2O1 (centres undefined)
classification: inactive
--
molecule: COc1ccc(C2=NNC(c3ccc(Oc4nc5c(c(=O)n(C)c(=O)n5C)n4C)c(OC)c3)C2)cc1 (centres undefined)
classification: inactive
--
molecule: O=C(Nc1ccc(Cl)cc1)c1cc(-c2ccc(Cl)cc2)c2sc(=O)[nH]c2n1
classification: active
--
molecule: CC1OC(n2c3ccccc3c3c4c(c5c6ccccc6[nH]c5c32)C(=O)N(CCN2CCOCC2)C4=O)CC(O)C1O (centres undefined)
classification: active
--
molecule: Cc1cc(-c2ccc(N=Nc3c(S(=O)(=O)O)cc4cc(S(=O)(=O)O)cc(O)c4c3O)c(C)c2)ccc1N=Nc1c(S(=O)(=O)O)cc2cc(S(=O)(=O)O)cc(O)c2c1O
classification: inactive
--
molecule: Cc1cc([N+](=O)[O-])c(C)cc1N
classification: inactive
--
molecule: C=CCN1C(=O)/C(=c2\sc3n(c2=O)C2C(NN=3)N(CC)C(=O)N2CC)c2ccccc21 (centres undefined)
classification: inactive
--
molecule: CN1C(=O)N(C)C2C1NN=c1s/c(=C\c3ccsc3)c(=O)n12 (centres undefined)
classification: inactive
--
molecule: Cc1c(C(N)=O)sc2ncn(CC(=O)NN=C3CCCCC3)c(=O)c12
classification: inactive
--
molecule: Cc1nn(-c2cccc(Cl)c2)c(C)c1N=Nc1ccc(Br)cc1
classification: inactive

Given CCCCCCCCCCCCCCCCCC(=O)OCCCCCCCCCCCCC , state the outcome it received in this test. inactive

Fill in: this test's call for CCCCCCCCCCCC1=NC(C)(C)CN1CCO is ___ inactive

Which result was noted for this molecule in the test: N=C(N)c1ccc(NCCNc2ccc(C(=N)N)cc2)cc1 inactive

So what was the verdict on CSC1=N/C(=C\c2cccc(OCc3ccc(Cl)cc3)c2)C(=O)N1 in this test? inactive

* * *

Test system: PC-3 prostate
Experiment: NCI-60 one-dose screen, 48 h (100 = growth as untreated, 0 = no growth, -100 = all killed)
Settings: 10 µM unless noted
The panel holds about 83,000 compounds, 20% with a hit somewhere; the sample as a whole holds those more often. Activity calls are given as the source filed them. How the source made its calls: active means growth percent below 10; inactive means the rest.
Assign growth to each entry below.

compound: O=C(N/N=C/c1ccc([N+](=O)[O-])o1)c1ccc(O)cc1
growth: 87.4% (inactive)
--
compound: CCCCCCCCCCCCCCCC1=NCCN1
growth: 47.6% (inactive)
--
compound: COc1cc(OC)c(Cl)cc1N
growth: 88.7% (inactive)
--
compound: CCCCCc1c(C)[nH]c(/C=C2\N=C(c3ccc[nH]3)C=C2Oc2ccc(OC)cc2)c1C
growth: -25.7% [100 µM] (active)

For each entry beneath this line, provide reported growth.
1. COc1cnc2c(c1)C(=O)c1c-2n(CCCN2CCCC2)c(=O)c2cc(Cl)ccc12
2. CC(C)c1nc2ccccc2n1CC(=O)N/N=C/c1cccc(O)c1
3. O=C(NNC(=O)c1cccc(Cl)c1)c1ccccc1
4. CC(=O)OC[C@H]1O[C@@H](n2c(=O)cc(N)[nH]c2=O)C(OC(C)=O)[C@@H]1OC(C)=O (stereo partly specified)
5. COC(=O)CSc1ccc(Cl)cc1
6. COc1ccc(-c2nc3c(c(-c4ccc(Cl)cc4)nn3-c3ccccc3)c(-c3ccc(O)cc3)c2C#N)cc1

["20.4% (inactive)", "87.9% (inactive)", "91.1% (inactive)", "95.3% (inactive)", "107% (inactive)", "23.9% (inactive)"]

* * *

Tested on: SN12C renal
Assay: NCI-60 one-dose screen, 48 h (100 = growth as untreated, 0 = no growth, -100 = all killed)
Conditions: 10 µM unless noted
Procedure: Growth inhibition of the SN12C human tumor cell line is measured as a screen for anti-cancer activity. Cells are grown in 96 well plates and exposed to the test compound for 48 hours. Compounds are tested at a single concentration, which is 10^-5 M for most compounds. The reported endpoint is percent growth (GI% or GIPRCNT), where numbers from 0 - 100% represent growth inhibition, and numbers from -100% - 0 represent cell death. For example, a value of 40 represents 60% growth inhibition. […]
Compounds without any hit were thinned out: in the full panel of roughly 83,000, 20% have a hit. Active and inactive are the calls of the source. The calls were made as follows: active = growth percent below 10; inactive = the rest.
Please respond with reported growth for every item in the list.

molecule: COc1ccc2nc(-c3ccc(-c4noc(-c5ccc(Cl)cc5)n4)cc3)[nH]c2c1
growth: 77.7% (inactive)
//
molecule: CC(=O)N1N=C(C2C(=O)N(C)C(=O)N(C)C2=O)CC1c1ccccc1C(=O)O (stereo not given)
growth: 101% (inactive)
//
molecule: O=[N+]([O-])c1ccc(Sc2nc(Cl)nc(NC3CCCC3)n2)cc1
growth: -88.9% [100 µM] (active)
//
molecule: COc1ccc(/C(C)=N/NC(=O)c2ccc(S(C)(=O)=O)cc2)cc1OC
growth: 100% (inactive)
//
molecule: COc1ccc(-c2cc(-c3cc4ccccc4oc3=O)n(-c3ccccc3)n2)cc1
growth: 67% (inactive)
//
molecule: COc1ccc(C2NC(=O)c3cc4c(cc3N2)OCO4)cc1 (stereo not given)
growth: 31.6% (inactive)

# return growth for each item in the list
1. O=C1CCCN1C1CCN2CCCc3cccc1c32 (stereo not given)
2. CC1=CC(=O)OC1C/C=C(\C)CCC1[C@@]2(C)CCC[C@@](C)(C(=O)O)C2CC[C@@]1(C)O (stereo not given in full)
3. N/C(=C\C(=O)n1nc(-c2ccccc2)cc1N)c1ccccc1
4. CCOC(=O)C1=C(C(=O)OCC)N(c2cc(OC)c(OC)c(OC)c2)C(N)=C(C#N)C1c1cc(=O)[nH]c2ccccc12 (stereo not given)
5. CC(C)(C)c1nn(-c2ccccc2)c2c1C(=O)CSC(c1ccccc1Cl)N2 (stereo not given)
6. COc1ccccc1/C=C/C(=O)CCC(=O)O

1: 104% (inactive); 2: 41% (inactive); 3: 62.1% (inactive); 4: 98.5% (inactive); 5: 53.8% (inactive); 6: 100% (inactive)

Provide growth values for the following items, in order.
1. S=C(Nc1ccc(Cl)cc1)Nc1ccc(Cl)cc1 (tested in a mixture with another compound)
2. O=C1Nc2ccc(Br)cc2/C1=N/c1nc(-c2ccccc2)cs1
3. CCn1c(Cc2ccccc2Nc2c(Cl)cccc2Cl)nnc1SCC(=O)Nc1cccc(OC)c1
4. O=C(CSc1nnc(Cc2ccccc2Nc2c(Cl)cccc2Cl)n1-c1ccccc1)N1N=C(c2ccc3ccccc3c2)CC1c1ccc(Cl)cc1 (stereo not given)

1. 11.1% (inactive)
2. 96% (inactive)
3. 66.6% (inactive)
4. 96.6% (inactive)

Numbers sourced from PubChem BioAssay (NCI).
